Origin of measurements: ChEMBL document CHEMBL2040790

# Test system: La Crosse virus
# EXPERIMENT_SUMMARY: Antiviral activity against La Crosse virus infected in african green monkey Vero cells assessed as inhibition of virus-induced cytopathic effect by fluorometric analysis
# Type: functional, organism-based
Parameter EC50: see the listing below.

Illustrative cases are given below, each with its answer.
> print(dat)
                                        smi  experimental.readout   result
1    CC(C)(C)c1ccc(C(=O)NC(=S)NC2CCCCC2)cc1                  EC50  3.71 µM
2  CC(C)(C)c1ccc(C(=O)NC(=S)Nc2cccc(NC(=O)c3ccccc3Cl)c2)cc1                  EC50  > 25 µM
3   Cc1ccccc1NC(=S)NC(=O)c1ccc(C(C)(C)C)cc1                  EC50  0.63 µM
4  CNc1cccc(C(=O)Nc2ccc(NC(=S)NC(=O)c3ccc(C(C)(C)C)cc3)cc2OC)c1.Cl                  EC50  > 25 µM
5  COC(=O)CC(=O)Nc1ccc(NC(=S)NC(=O)c2ccc(C(C)(C)C)cc2)cc1OC                  EC50  > 25 µM
6  CC(C)(C)c1ccc(C(=O)NC(=S)Nc2ccc(C(=O)O)cc2)cc1                  EC50  > 25 µM
7  CC(C)(C)c1ccc(C(=O)NC(=S)Nc2cc(OC(F)(F)F)ccc2Cl)cc1                  EC50  > 25 µM
8  CC(C)(C)c1ccc(C(=N)NC(=S)Nc2ccccc2Cl)cc1                  EC50  > 25 µM

# evaluate next
For reference, reported EC50 for CC(C)(C)c1ccc(C(=O)NC(=S)Nc2ccccc2)cc1 stands at 5.01 µM
